Organism: Homo sapiens
Experiment: Liver toxicity in human assessed as induction of drug-induced liver injury by measuring severity class index; also: key of the grades not given here
# maps each entry to its DILI_severity_class

molecule: O=c1n(CCCN2CCN(c3cccc(Cl)c3)CC2)nc2ccccn12
DILI_severity_class: 5
//
molecule: COc1cc2c(cc1OC)C(=O)C(CC1CCN(Cc3ccccc3)CC1)C2 (centres undefined)
DILI_severity_class: 3
//
molecule: CC(C)(C)NCC(O)c1cc(O)cc(O)c1 (centres undefined)
DILI_severity_class: 3
//
molecule: CCC(C)C1(CC)C(=O)NC(=O)NC1=O (centres undefined)
DILI_severity_class: 3
//
molecule: CC(=O)Nc1nnc(S(N)(=O)=O)s1 [ACETAZOLAMIDE]
DILI_severity_class: 8
//
molecule: CN(Cc1cnc2nc(N)nc(N)c2n1)c1ccc(C(=O)N[C@@H](CCC(=O)O)C(=O)O)cc1 [METHOTREXATE]
DILI_severity_class: 3
//
molecule: CN(C)CC(c1ccc(O)cc1)C1(O)CCCCC1 (centres undefined)
DILI_severity_class: 3
//
molecule: C[C@H]1[C@H](NC(=O)/C(=N\OC(C)(C)C(=O)O)c2csc(N)n2)C(=O)N1S(=O)(=O)O
DILI_severity_class: 5
//
molecule: C=CCN1C[C@H](C(=O)N(CCCN(C)C)C(=O)NCC)C[C@@H]2c3cccc4[nH]cc(c34)C[C@H]21
DILI_severity_class: 0
//
molecule: O=C(c1ccc(OCCN2CCCCC2)cc1)c1c(-c2ccc(O)cc2)sc2cc(O)ccc12
DILI_severity_class: 0
//
molecule: COc1ccc2c3c1O[C@H]1C(=O)CC[C@@]4(O)[C@@H](C2)N(C)CC[C@]314
DILI_severity_class: 0
//
molecule: Nc1ccn(C[C@@H](CO)OCP(=O)(O)O)c(=O)n1.O.O
DILI_severity_class: 5
//
molecule: OC[C@@H](O)[C@@H](O)[C@H](O)[C@@H](O)CO
DILI_severity_class: 0
//
molecule: NNC(=O)c1ccncc1
DILI_severity_class: 8
//
molecule: NC(=O)NS(=O)(=O)c1ccc(N)cc1 [SULFACARBAMIDE]
DILI_severity_class: 8
//
molecule: CC(C[N+](C)(C)C)OC(N)=O (centres undefined)
DILI_severity_class: 0
//
molecule: CCCSc1ccc2nc(NC(=O)OC)[nH]c2c1
DILI_severity_class: 7
//
molecule: CN1CC[C@]23CCCC[C@H]2[C@H]1Cc1ccc(O)cc13
DILI_severity_class: 0
//
molecule: C[C@]12CC[C@@H]3c4ccc(O)cc4CC[C@H]3[C@@H]1CCC2=O
DILI_severity_class: 2
